Quick reference for PBM binding z-score among some sequences
Test system: LXRa:RXRa (NR concentration 270 nM, RXRa partner concentration 90 nM)
Assay: PBM binding z-score (relative to random genomic background probes); higher = stronger binding; sequences stand for … in GC…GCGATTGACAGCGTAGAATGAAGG
# answer = number (no unit)

residue.codes: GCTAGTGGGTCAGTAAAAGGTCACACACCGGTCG
measured.number: 4.77

Field request: PBM binding z-score | item: "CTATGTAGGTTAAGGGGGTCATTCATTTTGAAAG"
4.91

Field request: PBM binding z-score | item: "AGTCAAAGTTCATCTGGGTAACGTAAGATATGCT"
6.01

Field request: PBM binding z-score | item: "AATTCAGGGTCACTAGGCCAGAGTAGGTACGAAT"
6.2

Field request: PBM binding z-score | item: "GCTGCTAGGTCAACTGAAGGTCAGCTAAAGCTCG"
4.92

Field request: PBM binding z-score | item: "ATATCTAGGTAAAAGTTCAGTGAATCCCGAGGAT"
1.43

Field request: PBM binding z-score | item: "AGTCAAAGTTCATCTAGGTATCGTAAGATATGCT"
5.79

Data provenance is the supplement of paper PMC6555819.
